Read-out record for KPC-2 (Klebsiella pneumoniae, UniProt Q9F663): Ki
Record the result as number plus unit.

1. O=C(O)C[C@@H]1CC[C@H](NC(=O)Cc2cccs2)B(O)O1
22 nM

Now turn to the next compound.
Result for NCCN[C@H]1CC[C@H](CC(=O)N[C@H]2Cc3cccc(C(=O)O)c3OB2O)CC1 , tested on KPC-2 (Klebsiella pneumoniae, UniProt Q9F663), Ki: 4 nM

* * *

Read-out record for IMP-1 (Serratia marcescens): Ki

1. O=C(O)C[C@@H]1CC[C@H](NC(=O)Cc2cccs2)B(O)O1 [Vaborbactam]
> 30 µM

Quick batch: Ki for everything below.
1. NCCN[C@H]1CC[C@H](CC(=O)N[C@H]2Cc3cccc(C(=O)O)c3OB2O)CC1 [Taniborbactam]
2. NC(=O)[C@@H]1CC[C@@H]2CN1C(=O)N2OS(=O)(=O)O [Avibactam]

Response:
1: ≥ 30 µM; 2: > 30 µM

* * *

Target: SHV-5 (Klebsiella pneumoniae, UniProt P0A3M1)
Sequence (P0A3M1 22-286): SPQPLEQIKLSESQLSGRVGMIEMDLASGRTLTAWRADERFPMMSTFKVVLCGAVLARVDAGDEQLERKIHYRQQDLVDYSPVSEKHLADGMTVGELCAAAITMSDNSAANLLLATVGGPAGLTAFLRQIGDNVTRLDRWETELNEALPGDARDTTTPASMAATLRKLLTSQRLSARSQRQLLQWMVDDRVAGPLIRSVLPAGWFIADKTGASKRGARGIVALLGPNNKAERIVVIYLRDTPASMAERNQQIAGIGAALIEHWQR
quantity-measured: pKi
Answers are plain numbers, as −log10 of the molar value.

Record summary for NCCN[C@H]1CC[C@H](CC(=O)N[C@H]2Cc3cccc(C(=O)O)c3OB2O)CC1 : reported pKi = 8.52

Sourced from paper PMC7038240
